Source of measurements: PubChem BioAssay (EPA / NIEHS)

# method_description: ATG_TGFb_CIS: Attagene CIS-FACTORIAL HepG2 Assay for human Transforming Growth Factor (TGF) (AID 2282967)
# condition_parameters: HepG2 Attagene CIS TGFb reporter, mRNA transcription; actives raise or lower the signal
The source made the active and inactive calls. How the source made its calls: active means hit-call score of the fitted dose curve at least 0.9, where 1 is the maximum; inactive means score below 0.9.
The categories you may choose from are active, inactive

compound	class_assignment
CC(C)COC(=O)c1ccccc1	inactive

Query: Which outcome was entered for the compound CCC(C)(C)c1cc(O)c(C(C)(C)CC)cc1O in this test?
Result: active

Query: Which outcome was entered for the compound C=CCOCC(O)CO (configuration not stated) in this test?
Result: inactive

Query: Which outcome was entered for the compound CN(C)C(=O)Nc1ccccc1 in this test?
Result: inactive
